Answer each item with its documented normalized growth.
# Assay Name: chemical genetic growth profiling, strain panel (AID 1159580);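 further: tested at 20 µM; growth read once vehicle control cultures reached saturation at 30 °C; 1 = growth at the plate median or of vehicle wells; lower values mean less growth of the strain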
# Study Conditions: S. cerevisiae deletion strains, growth OD, locus YBR229C, strain ROT2, stronger effect = lower value
In all, about 5,500 compounds went through this assay and about 2,000 (36%) were called active. Roughly 18% stayed inconclusive and do not appear here. The list shows a part of the results.
// return just the number, without any unit appended

IN: Item under review: CN(C)CCC(c1ccccc1)c1ccccn1 (centres undefined) . Reported normalized growth?
OUT: 1

IN: Also check CCOC(=O)CNc1ccc(Cl)c(Cl)c1
OUT: 0.969

IN: Also check CCOC(=O)C(c1ccccc1)C(Nc1ccc(Cl)c(Cl)c1)c1ccccn1 (centres undefined)
OUT: 1.01

IN: Also check CC(C)(CC(=O)O)CC(=O)Nc1cc(C(F)(F)F)cc(C(F)(F)F)c1
OUT: 1.01

IN: Also check O/N=C(/CNC(c1ccccc1)(c1ccccc1)c1ccccc1)c1ccccc1
OUT: 0.977

IN: Also check CCOC(=O)C(O)(c1ccc(N)c(C)c1)C(F)(F)F (centres undefined)
OUT: 1

IN: Also check CCN1C[C@@]2(COC)C3[C@@H](OC)[C@H]4[C@@H]1[C@]3(C(OC)C[C@H]2O)C1C[C@@]2(O)[C@H](OC(=O)c3ccccc3)C1[C@]4(OC(C)=O)[C@@H](O)[C@@H]2OC (some centres undefined)
OUT: 1.02

IN: Also check O=C(CN1CCOCC1)Nc1cc(C(F)(F)F)cc(C(F)(F)F)c1
OUT: 1.01

IN: Also check NCC[C@@H](O)C(=O)N[C@@H]1C[C@H](N)[C@@H](O[C@H]2O[C@H](CN)[C@@H](O)[C@H](O)[C@H]2O)[C@H](O)[C@H]1O[C@H]1O[C@H](CO)[C@@H](O)[C@H](N)C1O (some centres undefined)
OUT: 0.999

* * *

Answer each item with its documented normalized growth.
# Assay Name: chemical genetic growth profiling, strain panel (AID 1159580);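 further: tested at 20 µM; growth read once vehicle control cultures reached saturation at 30 °C; 1 = growth at the plate median or of vehicle wells; lower values mean less growth of the strain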
# Study Conditions: S. cerevisiae deletion strains, growth OD, locus YHR013C, strain ard1, stronger effect = lower value
Among all 5,500 compounds or so, about 2,000 (36%) were called active. About 18% were inconclusive and are not listed. The list shows a part of the results.
// return just the number, without any unit appended

IN: Item under review: CC(=O)O[C@@H]1CC2C(C)(C)C(=O)C3OC3[C@]2(C)C2CC[C@@]3(C)[C@H](c4ccoc4)OC(=O)C4OC43[C@@]21C (stereo partly drawn) . Reported normalized growth?
OUT: 0.969

IN: Also check CC(=O)O[C@H]1C[C@@H](OC(C)=O)C(C)(C)C2C[C@@H](OC(C)=O)[C@]3(C)C(CC[C@@]4(C)[C@H](c5ccoc5)OC(=O)[C@H]5O[C@]543)[C@]21C (stereo partly drawn)
OUT: 0.987

IN: Also check CC(=O)O[C@@H]1CC2C(C)(C)[C@@H](O)CC[C@]2(C)C2CC[C@@]3(C)[C@H](c4ccoc4)OC(=O)[C@H]4O[C@]43[C@@]21C (stereo partly drawn)
OUT: 0.988

* * *

# Assay Name: chemical genetic growth profiling, strain panel (AID 1159580);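 further: tested at 20 µM; growth read once vehicle control cultures reached saturation at 30 °C; 1 = growth at the plate median or of vehicle wells; lower values mean less growth of the strain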
# Study Conditions: S. cerevisiae deletion strains, growth OD, locus YER002W, strain NOP16, stronger effect = lower value
In all, about 5,500 compounds went through this assay and about 2,000 (36%) were called active. About 18% were inconclusive and are not listed. The list shows a part of the results.
Experimental Endpoint: normalized growth

IN: Item under review: COc1ccc(NC(=O)c2ccc(-c3ccc(-c4noc(C)n4)cc3C)cc2)cc1N1CCN(C)CC1 . Reported normalized growth?
OUT: 1.01 (inactive)

IN: Also check CNc1ncnc2c1ncn2[C@@H]1O[C@H](CO)[C@H](O)C1O (some centres undefined)
OUT: 0.978 (inactive)

IN: Also check C[N+]1(C)CCc2cc3c(cc2[C@H]1[C@@H]1OC(=O)c2c1ccc1c2OCO1)OCO3
OUT: 0.991 (inactive)

IN: Also check CCCNC(=O)NS(=O)(=O)c1ccc(Cl)cc1
OUT: 1.01 (inactive)

IN: Also check NCCCCCC(=O)O
OUT: 0.992 (inactive)

IN: Also check CC1(C)C(=O)N(CCN2CCC(C(=O)c3ccc(F)cc3)CC2)c2ccccc21
OUT: 1.01 (inactive)

IN: Also check O=C(O)/C=C/C(O)c1ccc(Cl)cc1 (centres undefined)
OUT: 1 (inactive)

IN: Also check CN1CCCC1CCOC(C)(c1ccccc1)c1ccc(Cl)cc1 (centres undefined)
OUT: 1 (inactive)

IN: Also check COc1cc2c(CCNC(C)=O)c[nH]c2cc1O
OUT: 1.02 (inactive)

IN: Also check COc1cc2nc(N3CCN(C(=O)OCc4ccccc4)C(C(=O)NC(C)(C)C)C3)nc(N)c2cc1OC (centres undefined)
OUT: 1.14 [resistant] (active)

IN: Also check CCCCCC(O)c1cccc(OCc2ccc3ccccc3n2)c1 (centres undefined)
OUT: 1.01 (inactive)

IN: Also check CCCn1c(=O)c2[nH]c(C3CCCC3)nc2n(CCC)c1=O
OUT: 1.01 (inactive)

IN: Also check Clc1ccc(C(c2ccc(Cl)cc2)n2cc[n+](CC(OCc3ccc(Cl)cc3Cl)c3ccc(Cl)cc3Cl)c2)cc1 (centres undefined)
OUT: 1.01 (inactive)

IN: Also check CCCN(CCC)C1Cc2cc(OC)c(OC)cc2C1
OUT: 1.04 (inactive)

IN: Also check O=C(O)CCCCCCCC(=O)O
OUT: 1.01 (inactive)

IN: Also check COc1ccccc1N1CCN(CCCCNS(=O)(=O)c2cccc3c(N(C)C)cccc23)CC1
OUT: 0.999 (inactive)

IN: Also check O=C1CCCN1CC#CCN1CCCC1
OUT: 0.985 (inactive)

IN: Also check NCCCCNCCCN
OUT: 0.991 (inactive)

IN: Also check O=c1[nH]c2cc(C(F)(F)F)ccc2n1-c1cc(C(F)(F)F)ccc1O
OUT: 1.02 (inactive)

IN: Also check Cc1nc(-c2ccc(-c3ccc(C(=O)N4CCc5cc6c(cc54)C4(CCN(C)CC4)CO6)cc3)c(C)c2)no1
OUT: 0.991 (inactive)

IN: Also check Cc1oncc1C(=O)Nc1ccc(C(F)(F)F)cc1
OUT: 1.01 (inactive)

IN: Also check CNc1ccc2oc(C[C@H]3O[C@@]4(CC[C@H]3C)O[C@H]([C@H](C)C(=O)c3ccc[nH]3)[C@H](C)C[C@H]4C)nc2c1C(=O)O
OUT: 0.997 (inactive)

IN: Also check COc1cc2nc(N3CCN(C(=O)C4COc5ccccc5O4)CC3)nc(N)c2cc1OC (centres undefined)
OUT: 1.01 (inactive)

IN: Also check COc1cc(NS(C)(=O)=O)ccc1Nc1c2ccccc2nc2ccccc12
OUT: 0.989 (inactive)

IN: Also check NC(N)=NCCSSCCN=C(N)N
OUT: 0.992 (inactive)

IN: Also check CN(C)C/C=C(/c1ccc(Br)cc1)c1cccnc1
OUT: 0.992 (inactive)

IN: Also check CCCCS(=N)(=O)CC[C@H](N)C(=O)O (some centres undefined)
OUT: 1.01 (inactive)

IN: Also check CCCc1c(-c2ccc(O)cc2)nn(-c2ccc(O)cc2)c1-c1ccc(O)cc1
OUT: 1 (inactive)

IN: Also check CN(C)C(=O)Oc1ccc[n+](C)c1
OUT: 1.01 (inactive)

IN: Also check C[C@@H](Oc1ccc(Oc2cnc3ccc(Cl)cc3n2)cc1)C(=O)O
OUT: 0.995 (inactive)

IN: Also check CC(=O)[C@H]1CCC2C3CC[C@H]4C[C@H](O)CC[C@]4(C)C3CC[C@@]21C (some centres undefined)
OUT: 1 (inactive)

IN: Also check S=C(S)OC1CC2CC1C1CCCC21 (centres undefined)
OUT: 1.01 (inactive)

IN: Also check CC[C@H](CO)Nc1nc(NCc2ccccc2)c2ncn(C(C)C)c2n1
OUT: 1.03 (inactive)

IN: Also check O=C(O)C1CCCNC1 (centres undefined)
OUT: 1.02 (inactive)

IN: Also check CC(=O)OCC1=C(C(=O)O)N2C(=O)[C@@H](NC(=O)CCC[C@@H](N)C(=O)O)[C@H]2SC1
OUT: 1.02 (inactive)

IN: Also check CCCCCCCCCCC/C=C\C(C)(C)/C=C\CCCC(=O)O
OUT: 1.04 (inactive)

IN: Also check C[C@]12CC[C@H]3[C@@H](CCC4C[C@H](O)CC[C@@]43C)[C@@H]1CC[C@@H]2O (some centres undefined)
OUT: 1 (inactive)

IN: Also check COc1cc2c(CCNC(C)=O)c[nH]c2cc1Cl
OUT: 0.956 (inactive)

IN: Also check NCCC1CCCC(CCN)N1 (centres undefined)
OUT: 0.995 (inactive)

IN: Also check c1ccc(CN2CCC3(CCCc4ccccc43)CC2)cc1
OUT: 0.975 (inactive)

IN: Also check Cc1ccccc1/C=C/C1=NCCN1
OUT: 1.01 (inactive)

IN: Also check COc1ccc2c(c1)c(CC(=O)O)c(C)n2Cc1ccc(Cl)cc1
OUT: 0.999 (inactive)

IN: Also check NC1(C(=O)O)CCCCC1
OUT: 1.01 (inactive)

IN: Also check COc1cc2nc(N3CC=[N+](C(=O)c4ccco4)CC3)nc(N)c2cc1OC
OUT: 1.01 (inactive)

IN: Also check Cc1ccccc1CNc1ncnc2c1ncn2C1OC(CO)C(O)C1O (centres undefined)
OUT: 1.01 (inactive)

IN: Also check NC(CP(=O)(O)O)C(=O)O (centres undefined)
OUT: 1.03 (inactive)

IN: Also check CSc1ccc(C(=O)c2[nH]c(=O)[nH]c2C)cc1
OUT: 0.978 (inactive)

IN: Also check N[C@H](C(=O)O)[C@H](O)C(=O)O
OUT: 1 (inactive)

IN: Also check O=NN(CCCl)C(=O)NCCCl
OUT: 1.02 (inactive)
